Test: Visual color tone of polymerized plate under sunlight (Example 15)
Assay type: physicochemical
Settings: 0.05 part, with chromene 2 (0.03 part)
quantity-measured: Color tone in T1/2

compound="NC1CC1C1=C2C(=O)N(COC(=O)Cc3cccc4ccccc34)C(=O)C2C2(c3c1ccn3-c1ccccc1)C1(O)CCC2(O)CC1 (stereo not shown)" result=green
compound="O=C1OC(=O)C2C1=C(C1CC1)c1c(sc3c1CCCC3)C21C2CCCC1CCC2 (stereo not shown)" result=brown
compound="CCOC1CC1C1=C2C(=O)N(C(C#N)CC)C(=O)C2C2(c3sc(OC)c(C)c31)C1CC3CC(C1)CC2C3 (stereo not shown)" result=gray

----------
Experiment: Durability of poly(allyl diglycol carbonate) lens impregnated with the compound in silicone oil, as in Example 9 (Example 10)
Type: physicochemical
Conditions: silicone oil impregnation, xenon fadeometer
quantity-measured: T1/2 (h)
The reply should contain only the number, in h.

Solved entries (count: 4):
compound="Cc1cc2c(n1C)C1(C3CC4CC(F)(C3)CC1(F)C4)C1C(=O)N(C3CCC([N+](=O)[O-])CC3)C(=O)C1=C2C1CC1 (centres unmarked) [(40)]" unit_annotation=h number=74
compound="CC1CC1C1=C2C(=O)N(CCCCCc3cccc4ccccc34)C(=O)C2C2(c3sc4c(c31)CCCC4)C1CC3CC(C1)CC2C3 (centres unmarked) [(48)]" unit_annotation=h number=65
compound="N#CCN1C(=O)C2=C(C3CC3Oc3ccccc3)c3ccoc3C3(C4CCC3CC4)C2C1=O (centres unmarked) [(22)]" unit_annotation=h number=93
compound="COC(=O)CN1C(=O)C2=C(C3CC3)c3ccoc3C3(C4CCC3CC4)C2C1=O (centres unmarked) [(20)]" unit_annotation=h number=95

Switching to the query record.
Q) T1/2 lookup needed for CC(=O)CN1C(=O)C2=C(C3CC3C)c3cc(-c4ccccc4)sc3C3(C4CCC3CC4)C2C1=O (centres unmarked) [(10)] , thanks.
A) 85

----------
# T1/2 annotations
Assay: Photochromic PMMA cast film: initial coloration density, maximum absorption wavelength and fatigue life in xenon fadeometer (Example 9)
Assay type: physicochemical
Conditions: time for color density to fall to half of initial value; PMMA cast film 0.1 mm, xenon fadeometer, no stabilizer
Give a bare numeral; the unit h is implied.

Previously resolved entries follow.
compound="COC(=O)C(C)N1C(=O)C2=C(C3CC3)c3cc(-c4cccc(OC)c4)sc3C3(C4CC5CC(Cl)(C4)CC3(Cl)C5)C2C1=O (stereo not drawn)" quantity_measured=T1/2 number=85
compound="CCn1c2c(c3ccccc31)C(C1CC1C(=O)O)=C1C(=O)N(CC(=O)OCCC#N)C(=O)C1C21C2CC3CC(O)(C2)CC1(O)C3 (stereo not drawn)" quantity_measured=T1/2 number=62

Would you kindly look at the next entry?
Q) Return reported T1/2; argument: O=C1OC(=O)C2C1=C(C1CC1)c1c(sc3c1CCCC3)C21C2CCCC1CCC2 (stereo not drawn)
A) 52

----------
Experiment: Photochromic PMMA cast film: initial coloration density, maximum absorption wavelength and fatigue life in xenon fadeometer (Example 9);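 on Initial color density: initial color density is an absorbance value so the % unit is wrong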
Assay type: physicochemical
Details: PMMA cast film 0.1 mm, xenon light, no stabilizer
Give yes when the value for Initial color density is at least 0.7%. Give no when it is less.

molecule="Cc1cc2c(n1C)C1(C3CCCC1CCC3)C1C(=O)OC(=O)C1=C2C1CC1 (stereo not drawn) [(53)]" group_label=yes
molecule="O=C1C2=C(C3CC3)c3cc(Br)sc3C3(C4CCCC3CCC4)C2C(=O)N1CCc1ccc2ccccc2c1 (stereo not drawn) [(3)]" group_label=yes
molecule="COc1cc2c(c(OC)c1OC)C1(C3CC4CC1CC(OC)(C4)C3)C1C(=O)N(CC(=O)NCCBr)C(=O)C1=C2C1CC1C(Cl)(Cl)Cl (stereo not drawn) [(39)]" group_label=no
molecule="CC(C)COC(=O)CN1C(=O)C2=C(C3C(CCl)C3CCl)c3cc(Br)sc3C3(C4CCCC3CCC4)C2C1=O (stereo not drawn) [(23)]" group_label=yes

Consider the additional molecule presented here.
Q) Is the recorded value of Initial color density equal to or greater than 0.7% for this molecule? COC(=O)C(C)N1C(=O)C2=C(C3CC3)c3cc(-c4cccc(OC)c4)sc3C3(C4CC5CC(Cl)(C4)CC3(Cl)C5)C2C1=O (stereo not drawn) [(35)]
A) yes

----------
Assay: Photochromic PMMA cast film: initial coloration density, maximum absorption wavelength and fatigue life in xenon fadeometer (Example 9);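 on Initial color density: initial color density is an absorbance value so the % unit is wrong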
Assay type: physicochemical
Conditions: PMMA cast film 0.1 mm, xenon light, no stabilizer
Lab note: anything with Initial color density below 0.8% is marked fulfilled; values at 0.8% or higher are marked not fulfilled.

// below: answered compounds
compound="O=C1OC(=O)C2C1=C(C1CC1C(F)(F)F)c1sc(Br)cc1C21C2CCC1CC2 (stereo not drawn) [(50)]" group_label="not fulfilled"
compound="CC1CC1C1=C2C(=O)N(CCCCCc3cccc4ccccc34)C(=O)C2C2(c3sc4c(c31)CCCC4)C1CC3CC(C1)CC2C3 (stereo not drawn) [(48)]" group_label=fulfilled

Next, consider the following compound.
Q) Given COC12CCC(CC1)C21c2oc3ccccc3c2C(C2CC2(Br)Br)=C2C(=O)N(CC(=O)OC(C)(C)CCC#N)C(=O)C21 (stereo not drawn) [(13)] , is recorded Initial color density strictly lower than 0.8%?
A) fulfilled

----------
Test: Durability of poly(allyl diglycol carbonate) lens impregnated with the compound in silicone oil, as in Example 9 (Example 10)
Type: physicochemical
Settings: silicone oil impregnation, xenon fadeometer
Reported values of T1/2 for individual entries
Give a bare numeral; the unit h is implied.

molecule="CCOC(=O)OCN1C(=O)C2=C(C3C(c4ccccc4)C3c3ccccc3)c3cc(-c4ccc(OC)cc4)sc3C3(C4CCCC3CCC4)C2C1=O (stereo not drawn)" unit_annotation=h number=86
molecule="O=C1C2=C(C3CC3)c3sc4c(c3C3(C5CCCC3CCC5)C2C(=O)N1CCc1cccc2ccccc12)CCCC4 (stereo not drawn)" unit_annotation=h number=80
molecule="CCC(C#N)N1C(=O)C2=C(C3CC3[N+](=O)[O-])c3c(sc4c3CCCC4)C3(C4CCCC3(C)CCC4)C2C1=O (stereo not drawn)" unit_annotation=h number=79
molecule="COc1cc2c(c(OC)c1OC)C1(C3CCC1CC3)C1C(=O)OC(=O)C1=C2C1CC1 (stereo not drawn)" unit_annotation=h number=55
molecule="CCOC1CC1C1=C2C(=O)N(C(C#N)CC)C(=O)C2C2(c3sc(OC)c(C)c31)C1CC3CC(C1)CC2C3 (stereo not drawn)" unit_annotation=h number=95

Consider now this further molecule.
Q) Find the recorded T1/2 belonging to COC(=O)CN1C(=O)C2=C(C3CC3)c3ccsc3C3(C4CCC3CC4)C2C1=O (stereo not drawn) and report it.
A) 82

----------
Assay: Photochromic PMMA cast film: initial coloration density, maximum absorption wavelength and fatigue life in xenon fadeometer (Example 9);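 on Initial color density: initial color density is an absorbance value so the % unit is wrong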
Assay type: physicochemical
Details: PMMA cast film 0.1 mm, xenon light, no stabilizer
quantity-measured: Initial color density
Field note: include the unit after the figure.

molecule="N#CCN1C(=O)C2=C(C3CC3Oc3ccccc3)c3ccoc3C3(C4CCC3CC4)C2C1=O (stereo not drawn)" quantity_measured="Initial color density" result=0.81%
molecule="NC1CC1C1=C2C(=O)N(COC(=O)Cc3cccc4ccccc34)C(=O)C2C2(c3c1ccn3-c1ccccc1)C1(O)CCC2(O)CC1 (stereo not drawn)" quantity_measured="Initial color density" result=0.78%

Could you now look at the following molecule, please?
Q) I am curious: what Initial color density value has been reported for COC(=O)CN1C(=O)C2=C(C3CC3)c3ccoc3C3(C4CCC3CC4)C2C1=O (stereo not drawn) ?
A) 0.82%
